Source of measurements: paper PMC4164784

Record form. Attribute: pKd. Fill in for each entry.
targetOfAssay: T1, eIF4E (residues 69–248), purified (Drosophila melanogaster, UniProt P48598-2 69-248)
T1 construct: eIF4E, Drosophila melanogaster, residues 69–248; the methods say the tag was cleaved with HRV3C; also called truncated eIF4E; eIF4E trunc; not shown: His6, N-terminal, cleaved
T1 sequence (looked up): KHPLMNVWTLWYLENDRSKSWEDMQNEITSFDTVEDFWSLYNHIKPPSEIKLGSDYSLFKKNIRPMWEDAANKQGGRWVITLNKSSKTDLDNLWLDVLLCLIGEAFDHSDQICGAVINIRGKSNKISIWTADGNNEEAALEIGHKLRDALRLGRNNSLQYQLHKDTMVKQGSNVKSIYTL
assay: ITC; VP-ITC, 20 °C; eIF4E (69–248, WT or mutant, 1–20 μM) in the cell, tenfold concentrated GB1-stabilized peptides titrated in; 20 mM Na-phosphate pH 7.0, 150 mM NaCl; one-site binding model
conditionDetails: both partners purified
Give bare numbers, as −log10 of the molar value.

| binder | measureName | resultNumber |
| --- | --- | --- |
| RYSKVDLLALRYE (domain or fragment) [4E-T C peptide fused C-terminally to GB1] | pKd | 7.80 |
| KSYTRSRLMDIRNGMFN (domain or fragment) [CUP C peptide fused C-terminally to GB1] | pKd | 6.80 |

Moving on to the next binder.
Field pKd (entry eIF4G peptide (residues 578–650) fused C-terminally to GB1 (domain or fragment, Drosophila melanogaster, UniProt O61380 578-650, looked up, eIF4G, Drosophila melanogaster, residues 578–650 (methods and legends); source: E. coli BL21 Star (DE3), purified (amylose, TEV cleavage, anion exchange, SEC); not shown: MBP, N-terminal, cleaved; GB1, C-terminal, kept) PETTLNDKQDSTDLKVKVSAKISSIINYNEGQWSPNNPSGKKQYDREQLLQLREVKASRIQPEVKNVSILPQP ) reads 7.77
